# Run conditions: buffer; pH 7.4; 200.0 µM
solubility kinetic values by entry
Observed property: solubility kinetic

INSERT INTO measurements (chem_smiles, reported_result) VALUES
  ('CC(C)c1ccc(CN2C(=O)NC3(CCCCCC3)C2=O)cc1', '< 0.3 µg/mL'),
  ('Cc1ccc2c(CN(C)Cc3ccccc3)cc(=O)oc2c1C', '1.7 µg/mL'),
  ('Cc1ccc(-c2cc(C(=O)N3CCN(c4ccc(O)cc4)CC3)c3ccccc3n2)cc1', '6.4 µg/mL'),
  ('Cc1cc(F)ccc1S(=O)(=O)Nc1nc2ccccc2nc1Cl', '> 52.8 µg/mL'),
  ('O=C(NC(=S)Nc1ccccc1Cl)c1cncc(Br)c1', '1.2 µg/mL'),
  ('Cc1ccccc1C(=O)N1CCC(C(=O)N2CCN(Cc3ccc4c(c3)OCO4)CC2)CC1', '59.1 µg/mL');

----------
# Run conditions: buffer; pH 7.4; 200.0 µM
solubility kinetic for assorted compounds
Observed property: solubility kinetic

INSERT INTO measurements (compound, observed_property, reported_result) VALUES
  ('O=C1NC(=Nc2ccccc2Cl)S/C1=C\c1cccc([N+](=O)[O-])c1', 'solubility kinetic', '4.2 µg/mL'),
  ('CC(=O)N(Cc1ccccc1)Cc1nc2sc(C)c(C)c2c(=O)[nH]1', 'solubility kinetic', '47.5 µg/mL'),
  ('O=C(O)[C@H](Cc1c[nH]c2ccccc12)Nc1ncccc1[N+](=O)[O-]', 'solubility kinetic', '> 48.9 µg/mL'),
  ('Brc1ccc(-c2csc(N3CCCCCC3)n2)cc1', 'solubility kinetic', '1.2 µg/mL'),
  ('Cn1cc(C(=O)NCCO)c(=O)c2ccccc21', 'solubility kinetic', '> 36.9 µg/mL'),
  ('O=S(=O)(NCc1ccc(Cl)cc1)c1cccc2cccnc12', 'solubility kinetic', '43.2 µg/mL'),
  ('Cc1ccc(NC(=O)COC(=O)CC2CCCC2)cc1F', 'solubility kinetic', '29.5 µg/mL'),
  ('Cc1ccc(SC(=O)c2c(C)noc2-c2cc(C)on2)cc1', 'solubility kinetic', '3 µg/mL'),
  ('CCCCc1ccc(NC(=O)NCc2cccnc2)cc1', 'solubility kinetic', '21.1 µg/mL'),
  ('CN(C)C(=O)N(CCCN1CCOCC1)Cc1cccc2ccccc12', 'solubility kinetic', '> 53.3 µg/mL'),
  ('CN(C)c1nc(-c2ccccc2)c2cc(Cl)ccc2n1', 'solubility kinetic', '1 µg/mL'),
  ('Cc1ccc(S(=O)(=O)NCC(=O)NCC2CCCCC2)cc1C', 'solubility kinetic', '> 50.8 µg/mL'),
  ('CNc1ncnc2sc(-c3ccccc3)cc12', 'solubility kinetic', '4.3 µg/mL'),
  ('CCN(C(=O)C(C)Cl)c1ccccc1 (stereo not given)', 'solubility kinetic', '20.6 µg/mL'),
  ('OCc1nc2c(ccc3ccccc32)[nH]1', 'solubility kinetic', '> 29.7 µg/mL'),
  ('CCN(CC)S(=O)(=O)c1ccc(N2CCOCC2)c(NC(=O)c2cc(Cl)c3c(c2)OCO3)c1', 'solubility kinetic', '5.2 µg/mL'),
  ('NS(=O)(=O)c1ccc(NC(=O)c2c(F)cccc2Cl)cc1', 'solubility kinetic', '13.3 µg/mL'),
  ('Cc1ccc(NS(=O)(=O)c2cccc(C(=O)NC3CC3)c2)c(C)c1', 'solubility kinetic', '5.8 µg/mL'),
  ('CCCN1C(=O)c2ccccc2NC1c1ccc(O)c(OCC)c1 (stereo not given)', 'solubility kinetic', '> 49 µg/mL'),
  ('COCc1cc(=O)[nH]c2c1c(-c1ccccc1)nn2C', 'solubility kinetic', '> 40.4 µg/mL'),
  ('Cc1cccc(Oc2nc(-c3ccccn3)nc3ccccc23)c1', 'solubility kinetic', '27.6 µg/mL'),
  ('Cc1cc(N2CCCCC2C)nc(-c2ccccc2O)n1 (stereo not given)', 'solubility kinetic', '0.5 µg/mL'),
  ('Cc1cc(-c2nc3ccccc3[nH]2)ccc1N', 'solubility kinetic', '> 33.5 µg/mL'),
  ('O=c1[nH]c(NCCO)nnc1Cc1ccccc1', 'solubility kinetic', '> 36.9 µg/mL'),
  ('COc1cccc(OC)c1OCCNCC1COc2ccccc2O1.Cl (stereo not given)', 'solubility kinetic', '> 57.3 µg/mL');

----------
# Run conditions: buffer; pH 7.4; 200.0 µM
Decision: solubility kinetic >= 8 µg/mL yields Condition met, all other cases yield Condition not met.

INSERT INTO results (compound, group_label) VALUES
  ('CC1CCN(C(=O)c2ccc(S(=O)(=O)N3CCCCCC3)cc2)CC1', 'Condition met'),
  ('O=C(COc1ccc(F)cc1)Nc1nc2c(s1)CCCC2', 'Condition not met'),
  ('CCCOc1ccc(C(=O)OCCN2CCCCC2)c(O)c1.Cl', 'Condition met'),
  ('CCN(C(=O)COc1ccc(N(C)S(=O)(=O)c2ccc(NC(C)=O)cc2)cc1)C1CCCCC1', 'Condition met'),
  ('O=C(Nc1cccc(Cl)c1)Nc1cnccn1', 'Condition not met'),
  ('Cc1nc2ccc(NC(=O)CSc3ccccc3)cc2s1', 'Condition met'),
  ('CC(=O)c1ccc(O)c(CSc2nncn2C)c1', 'Condition met'),
  ('CCN(CC(=O)Nc1ccc2c(c1)OCCO2)S(=O)(=O)c1ccc(F)cc1', 'Condition met'),
  ('CCOC(=O)c1c(C)n(Cc2ccccc2)c2ccc(O)cc12', 'Condition not met'),
  ('O=C(CNC(=O)Cc1ccccc1)NCc1cccs1', 'Condition met'),
  ('COc1cccc(NC(=O)C(c2ccccc2)N2CCNC(=O)C2)c1 (centres undefined)', 'Condition met'),
  ('Nc1nc(NCCO)nc(NCc2ccccc2)c1[N+](=O)[O-]', 'Condition met'),
  ('N#CCCN1CCN(C(=O)c2c(N)no[n+]2[O-])CC1', 'Condition met'),
  ('COc1cc(C(=O)N2c3ccccc3CCC2C)cc(OC)c1OC (centres undefined)', 'Condition met'),
  ('Cc1ccc(S(=O)(=O)c2c(C)cc(C)[nH]c2=O)cc1', 'Condition met'),
  ('N#CCOc1coc(CN2CCN(c3ccccc3)CC2)cc1=O', 'Condition met'),
  ('NC(=O)C1CCN(C(=O)c2cc(-c3ccc(Cl)cc3)nc3ccccc23)CC1', 'Condition met'),
  ('COc1ccccc1N1CCN(CC(=O)NCc2ccc(Cl)cc2)CC1', 'Condition met'),
  ('CC1CCCC(N2CCN(C(=O)c3ccccc3F)CC2)C1 (centres undefined)', 'Condition met'),
  ('O=C(CN1c2cccc3cccc(c23)S1(=O)=O)NCCc1ccc(F)cc1', 'Condition not met'),
  ('Cn1c(=O)c2c(ncn2CC(O)CNc2ccc(F)cc2)n(C)c1=O (centres undefined)', 'Condition met'),
  ('CNc1ccc([N+](=O)[O-])cc1C(=O)O', 'Condition met'),
  ('CC(=O)c1c(C)oc2ccc(NS(=O)(=O)c3ccccc3)cc12', 'Condition not met'),
  ('Cc1cccc(NS(=O)(=O)Cc2ccccc2)c1C', 'Condition met'),
  ('O=C(c1ccc(F)cc1)N1CCOCC1', 'Condition met'),
  ('Cc1[nH]c2ccccc2c1-c1csc(NC(=O)CSCCO)n1', 'Condition met'),
  ('Cc1ccsc1C(=O)NCc1ccccc1Cl', 'Condition met'),
  ('O=C(COC(=O)Cc1ccsc1)Nc1cccc(Cl)c1', 'Condition met'),
  ('Nc1cccc(C(=O)N/N=C/c2ccsc2)c1', 'Condition met'),
  ('COc1ccccc1N1CCN(C(=O)Cc2ccc(Cl)cc2)CC1', 'Condition met'),
  ('O=S(=O)(Nc1ccccn1)c1ccc(Cl)c2ccccc12', 'Condition not met'),
  ('CC(=O)NCCCc1nc2ccccc2n1Cc1ccccc1F', 'Condition met'),
  ('CC(NC(=O)c1cccc(F)c1)C1CC2CCC1C2 (centres undefined)', 'Condition met'),
  ('CSc1ccc(C(=O)NCC(=O)O)cc1[N+](=O)[O-]', 'Condition met'),
  ('O=C(O)c1ccc(Nc2ccc([N+](=O)[O-])c3nonc23)cc1', 'Condition met'),
  ('NC(=O)COC(=O)CSc1ccc2ccccc2c1', 'Condition met'),
  ('NC(=O)COC(=O)c1ccc(-c2ccc(O)cc2)cc1', 'Condition not met'),
  ('O=[N+]([O-])c1cccc(S(=O)(=O)NCCc2cn3ccccc3n2)c1', 'Condition met'),
  ('COc1ccc2[nH]c(C(=O)Nc3ccc(C)c(F)c3)cc2c1', 'Condition not met'),
  ('CC(C)c1ccc(Nc2c([N+](=O)[O-])c(=O)n(C)c3ccccc23)cc1', 'Condition not met'),
  ('Cc1ccc(C23CC4CC(CC(C(=O)NC(C(=O)O)C(C)C)(C4)C2)C3)cc1 (centres undefined)', 'Condition met'),
  ('Cc1ccc(C(=O)Nc2ccc(NC(=O)c3ccc(C)o3)cc2)o1', 'Condition not met'),
  ('Cc1cc(C)c(OCCN2CCOCC2)c(Cl)c1', 'Condition met'),
  ('Cc1cc(C)c(OCCCCCn2ccnc2)c(C)c1', 'Condition met'),
  ('CCOc1ccccc1CNCc1ccc(F)cc1.Cl', 'Condition met'),
  ('CN(C)c1cc(-c2ccc(Cl)c(Cl)c2)oc(=O)c1Cl', 'Condition not met'),
  ('CC(C)(C)C(=O)Nc1sc2c(c1C(=O)Nc1ccccn1)CCCC2', 'Condition not met'),
  ('COc1ccc(/C=C2\N=C(C)OC2=O)cc1[N+](=O)[O-]', 'Condition met');
